Field: binding signal. Provide a value for each of the sequences that follow.
- target-under-test: GST-ANAC019 NAC domain (Arabidopsis thaliana, UniProt Q9C932 14-162)
- Sequence: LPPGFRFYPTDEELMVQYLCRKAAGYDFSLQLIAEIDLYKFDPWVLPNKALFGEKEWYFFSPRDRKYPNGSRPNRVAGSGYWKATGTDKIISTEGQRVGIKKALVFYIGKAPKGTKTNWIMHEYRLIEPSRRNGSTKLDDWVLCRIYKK
- protocol-summary: universal protein binding microarray (PBM); high values mean tight binding
- run-parameters: protein: recombinant; tags: GST; chain copies: 2; dsDNA, one strand shown
Numbers only, in E-score.

In the examples that follow, each entry is paired with its recorded binding signal.
{"record-sequence": "ACACACGC", "binding signal [E-score]": 0.169}
{"record-sequence": "CAGTCAGA", "binding signal [E-score]": 0.0745}
{"record-sequence": "AGGGTAAG", "binding signal [E-score]": 0.0566}
{"record-sequence": "ATAGCGTG", "binding signal [E-score]": 0.174}

# map each sequence to its binding signal
1. AGTTACGC
2. TTACGAAA
3. GTTTCCTA
4. TTGACCAA
5. CACGGCAA

[reply]
1. 0.134
2. 0.248
3. 0.158
4. 0.063
5. 0.471

# map each sequence to its binding signal
1. CCACGGAA
2. GACGCAAC

[reply]
1: 0.427; 2: 0.294

----------
- target-under-test: GST-NTL8 NAC domain (Arabidopsis thaliana, UniProt Q9XIN7 14-156)
- Sequence: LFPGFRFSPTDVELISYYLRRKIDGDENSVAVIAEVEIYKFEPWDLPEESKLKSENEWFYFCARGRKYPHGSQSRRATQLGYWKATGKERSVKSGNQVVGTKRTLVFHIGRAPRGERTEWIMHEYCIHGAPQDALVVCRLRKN
- protocol-summary: universal protein binding microarray (PBM); high values mean tight binding
- run-parameters: protein: recombinant; tags: GST; chain copies: 2; dsDNA, one strand shown
Field: binding signal. Provide a value for each of the sequences that follow.
Give bare numbers, in E-score.

In the examples that follow, each entry is paired with its recorded binding signal.
{"record-sequence": "ACGTAACA", "binding signal / E-score": 0.205}
{"record-sequence": "AAGTAAAG", "binding signal / E-score": 0.27}
{"record-sequence": "GACACGGC", "binding signal / E-score": 0.0582}
{"record-sequence": "GGAGGAAA", "binding signal / E-score": 0.459}
{"record-sequence": "ACGAGAAA", "binding signal / E-score": 0.124}

# map each sequence to its binding signal
1. TGCGTAAA
2. AATTGACC
3. GTAAGTAA
4. CAAGCAAC
5. CCCTCCCC
6. GGAAGTAA
7. AGAGGAAA

[reply]
1. 0.0652
2. 0.0822
3. 0.195
4. 0.13
5. 0.336
6. 0.203
7. 0.45

# map each sequence to its binding signal
1. AAGCAAGC
2. CTTACTTA

[reply]
1. 0.209
2. 0.208

[ask] Look up binding signal: `TAAGCAAA`
[reply] 0.241

----------
- target-under-test: GST-ANAC055(1-171) (Arabidopsis thaliana, UniProt Q9LDY8 1-171)
- Sequence: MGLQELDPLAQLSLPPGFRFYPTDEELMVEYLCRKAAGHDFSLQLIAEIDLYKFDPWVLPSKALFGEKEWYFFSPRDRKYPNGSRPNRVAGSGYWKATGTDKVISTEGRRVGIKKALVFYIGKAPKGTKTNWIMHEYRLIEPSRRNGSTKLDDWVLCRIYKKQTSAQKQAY
- protocol-summary: universal protein binding microarray (PBM); transcription factors of Arabidopsis thaliana; high values mean tight binding
- run-parameters: protein: recombinant; tags: GST; chain copies: 2; dsDNA, one strand shown
Category | rule: reported binding signal within range, see lowest: < 0.1 E-score; middle: ≥ 0.1 E-score and < 0.2 E-score; highest: ≥ 0.2 E-score

[ask] Hey, which category is `ATTACGTA` in, do you know?
[reply] highest
